Tested on: Plasmodium berghei
TEST: Screen against P. berghei liver stage (PbLuc), transformed with Luciferase, at 10uM
Format: functional, HepG2
MEASUREMENT_PARAMETERS: tested at 10 uM
About 8,600 (12%) of roughly 69,000 compounds showed an effect of 50% or more. The list comes from a sample in which strong results are over-represented; it also holds close analogues and randomly drawn compounds.
Binarize INHIBITION at 40%; below is 1, at or above is -1.

Solved cases (5 shown):
{"MOLECULE": "CCc1nc(N)nc(N2CCCC3(CCOCC3)C2)c1C", "LABEL_CLASS": -1}
{"MOLECULE": "CCc1nc(N)nc(N2CCCC3(CCN(C)CC3)CC2)c1C", "LABEL_CLASS": 1}
{"MOLECULE": "O=C(NCc1ccccn1)[C@@H]1COC[C@H]2CN(C3CCOCC3)C[C@H]21", "LABEL_CLASS": 1}
{"MOLECULE": "CC[C@@H](CO)NC(=O)c1coc(COc2ccc3sc(C)nc3c2)n1", "LABEL_CLASS": -1}
{"MOLECULE": "CNc1cccc(C2CCCN(C(=O)c3cccnc3)C2)n1 (stereo not drawn)", "LABEL_CLASS": 1}

Is the reported INHIBITION for O=C(c1ccco1)N1C[C@@H]2[C@@H](C1)OCC(=O)N2Cc1cccnc1 strictly below 40%?
1

Is the reported INHIBITION for COc1ccc(CN2CCC(C(N)=O)CC2)cc1SC(F)(F)F strictly below 40%?
-1

Is the reported INHIBITION for CCS(=O)(=O)c1ncc(CN2CCN(C)CC2)n1CCc1ccccc1 strictly below 40%?
1

Is the reported INHIBITION for CN1CCN(C(=O)[C@@H]2CN(C)C[C@]23COc2ccc(F)cc2C3=O)CC1 strictly below 40%?
1

Is the reported INHIBITION for CCOc1ccc(C(=O)NCc2ccnc(N3CCCC3)c2)cn1 strictly below 40%?
-1

Is the reported INHIBITION for CC(C)Oc1ccc(C(=O)NCc2ccc3c(c2)CCCN3C)cn1 strictly below 40%?
1
